test system: redroot pigweed (Amaranthus retrofiexus, AMARE); experiment: Greenhouse herbicide screen, pre-emerge application, phytotoxicity rating; type: in vivo; settings: PRE emergent, 250 g ai/ha, 14 days after application, rating scale 0-100
Property Name: phytotoxicity rating AMARE
// keep it numeric: no unit symbol after the value

Field: example entries. Status: answers known.
q: # input compound: CC1CCCC(C)N1NC(=O)c1cc(-n2c(=O)cc(C(F)(F)F)n(C)c2=O)c(F)cc1Cl (stereo not drawn) ; wanted: its phytotoxicity rating AMARE
a: 100

q: # input compound: `CN(NC(=O)c1cc(-n2c(=O)cc(C(F)(F)F)n(C)c2=O)c(F)cc1Cl)c1ccccc1` ; wanted: its phytotoxicity rating AMARE
a: 100

More entries:
q: # input compound: `CN1CCN(NC(=O)c2cc(-n3c(=O)cc(C(F)(F)F)n(C)c3=S)c(F)cc2Cl)CC1` ; wanted: its phytotoxicity rating AMARE
a: 100

---

tested on: johnsongrass (Sorghum halepense, SORHA); assay: Greenhouse herbicide screen, pre-emerge application, phytotoxicity rating; format: in vivo; details: PRE emergent, 63 g ai/ha, 14 days after application, rating scale 0-100
Kind request: treat 80 as inclusive, so phytotoxicity rating SORHA at 80 or higher is yes, anything lower is no.

Reference set (5 entries):
q: Check the entry CC(=NN=C(OS(C)(=O)=O)c1cc(-n2c(=O)cc(C(F)(F)F)n(C)c2=O)c(F)cc1Cl)C(C)(C)C [Compound 5-3] : does phytotoxicity rating SORHA equal or exceed 80?
a: yes

q: Check the entry CN1CCN(NC(=O)c2cc(-n3c(=O)cc(C(F)(F)F)n(C)c3=S)c(F)cc2Cl)CC1 [Compound 1-14] : does phytotoxicity rating SORHA equal or exceed 80?
a: no

q: Check the entry Cn1c(C(F)(F)F)cc(=O)n(-c2cc(C(=O)NN(Cc3ccccc3)Cc3ccccc3)c(Cl)cc2F)c1=O [Compound 1-29] : does phytotoxicity rating SORHA equal or exceed 80?
a: yes

q: Check the entry Cn1c(C(F)(F)F)cc(=O)n(-c2cc(C(=O)NNC(=O)OC(C)(C)C)c(Cl)cc2F)c1=O [Compound 1-24] : does phytotoxicity rating SORHA equal or exceed 80?
a: no

q: Check the entry CC1CCCC(C)N1NC(=O)c1cc(-n2c(=O)cc(C(F)(F)F)n(C)c2=O)c(F)cc1Cl (stereo not shown) [Compound 1-16] : does phytotoxicity rating SORHA equal or exceed 80?
a: no

More entries:
q: Check the entry CC(=O)OC(=NN=C(C)C(C)(C)C)c1cc(-n2c(=O)cc(C(F)(F)F)n(C)c2=O)c(F)cc1Cl [Compound 5-2] : does phytotoxicity rating SORHA equal or exceed 80?
a: no

q: Check the entry CCOC(=O)NNC(=O)c1cc(-n2c(=O)cc(C(F)(F)F)n(C)c2=O)c(F)cc1Cl [Compound 1-23] : does phytotoxicity rating SORHA equal or exceed 80?
a: no

---

system: johnsongrass (Sorghum halepense, SORHA); assay: Greenhouse herbicide screen, pre-emerge application, phytotoxicity rating; assay type: in vivo; details: PRE emergent, 63 g ai/ha, 14 days after application, rating scale 0-100
Property Name: phytotoxicity rating SORHA
// keep it numeric: no unit symbol after the value

Field: example entries. Status: answers known.
q: # input molecule: CC1CCCC(C)N1N=C(OC(=O)C(Cl)Cl)c1cc(-n2c(=O)cc(C(F)(F)F)n(C)c2=O)c(F)cc1Cl (stereo not shown) ; wanted: its phytotoxicity rating SORHA
a: 0

q: # input molecule: `C#CCOC(=NN=C(C(C)(C)C)C(C)(C)C)c1cc(-n2c(=O)cc(C(F)(F)F)n(C)c2=O)c(F)cc1Cl` ; wanted: its phytotoxicity rating SORHA
a: 15

q: # input molecule: `Cn1c(C(F)(F)F)cc(=O)n(-c2cc(C(=O)NN3CCCC3)c(Cl)cc2F)c1=O` ; wanted: its phytotoxicity rating SORHA
a: 35

More entries:
q: # input molecule: CC1CCCC(C)N1NC(=O)c1cc(-n2c(=O)cc(C(F)(F)F)n(C)c2=S)c(F)cc1Cl (stereo not shown) ; wanted: its phytotoxicity rating SORHA
a: 100

From: patent US6770597B2
